System: CP325
PROTOCOL DETAILS: qHTS profiling for inhibitors of Plasmodium falciparum proliferation (AID 504749); note: nearly all actives have a fitted effect of over 60% in size
PROTOCOL CONDITIONS: P. falciparum in erythrocytes, SYBR Green DNA, 72 h; series mostly up to 28.7 µM
Results filed as inconclusive are left out. Active and inactive are the calls of the source. Calls come from the whole dose curve; as a rule, active = well fitted inhibition curve with a large enough effect; inconclusive = small, poorly fitted or top-dose-only effect; inactive = flat fitted curve, though single readings scatter.
Respond using exactly one of the listed classes: active, inactive

Q) What classification did CCN(CC)CCNC(=O)COc1ccc(OC)cc1 end up with in this test?
A) inactive

Q) Then what about the compound CCOC(=O)c1ccc(N)cc1 ?
A) inactive

Q) Proceed to CC(=O)Nc1ccc(S(=O)(=O)Nc2ccc([N+](=O)[O-])cc2)cc1
A) inactive

Q) Also CC(=O)N[C@@H](CCC(=O)O)C(=O)O , if possible.
A) inactive

Q) Repeat for the following compound: Cl/C(=C\n1cncn1)c1ccc(Cl)cc1Cl
A) inactive

Q) Would you kindly repeat that for O=C1C(O)=C(O)C(=O)C(O)=C1O ?
A) inactive

Q) Would you kindly repeat that for CCOc1cc(OCC)c(C(=O)CCC(=O)O)cc1OCC ?
A) inactive
